A short record of IC50 observed with Aurora kinase B (Homo sapiens) follows.
Sequence (Q96GD4 whole entry): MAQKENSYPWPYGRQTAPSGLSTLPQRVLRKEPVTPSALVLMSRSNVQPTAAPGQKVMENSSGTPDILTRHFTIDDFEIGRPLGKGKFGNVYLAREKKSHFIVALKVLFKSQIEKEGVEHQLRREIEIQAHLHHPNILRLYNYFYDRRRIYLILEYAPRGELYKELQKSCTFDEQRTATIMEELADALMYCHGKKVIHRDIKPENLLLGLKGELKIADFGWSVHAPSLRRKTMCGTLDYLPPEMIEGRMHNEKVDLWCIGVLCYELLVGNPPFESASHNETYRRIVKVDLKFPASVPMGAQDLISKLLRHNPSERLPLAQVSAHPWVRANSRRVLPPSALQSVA
Write the figure, then the unit, nothing else.

Check out these entries, answers already filled in.
molecule-smiles: O=C(Nc1ncc(CCNc2ncnc3ccsc23)s1)Nc1cccc2cc[nH]c12
IC50: 19 nM

molecule-smiles: O=C(Nc1ccccc1)Nc1ncc(CCNc2ncnc3ccsc23)s1
IC50: 120 nM

molecule-smiles: O=C(Nc1cccc(F)c1)Nc1ncc(CCNc2ncnc3ccsc23)s1
IC50: 18 nM

molecule-smiles: O=C(Cc1cccc(C(F)(F)F)c1)Nc1ncc(CCNc2ncnc3ccsc23)s1
IC50: 580 nM

Request: Name the reported IC50 value associated with the molecule `O=C(Nc1cccc(C(F)(F)F)c1)Nc1ncc(CCNc2ncnc3ccsc23)s1`
Result: 14 nM

Request: Name the reported IC50 value associated with the molecule `O=C(Cc1ncc(CCNc2ncnc3ccsc23)s1)Nc1cccc(C(F)(F)F)c1`
Result: 442 nM

Request: Name the reported IC50 value associated with the molecule `O=C(Nc1ccc(Cl)c(Cl)c1)Nc1ncc(CCNc2ncnc3ccsc23)s1`
Result: 13 nM

* * *

Below: a set of entries, each annotated with reported EC50.
- Tested on: HCT-116
- test-method-notes: Decrease in histone H3 phosphorylation in human HCT116 cells after 16 hrs by Western blot
- experimental-conditions: HCT-116, 16 h

compound: O=C(Nc1ncc(CCNc2ncnc3ccsc23)s1)Nc1cccc2cc[nH]c12
reported-property: EC50
result: 16 nM

compound: CS(=O)(=O)O.O=C(Nc1cccc(Cl)c1)Nc1ncc(CCNc2ncnc3ccsc23)s1 [SNS-314 MESYLATE]
reported-property: EC50
result: < 16 nM

Please find the next compound below.
Request: Name the reported EC50 value associated with the compound `O=C(Nc1cccc(F)c1)Nc1ncc(CCNc2ncnc3ccsc23)s1`
Result: < 16 nM

* * *

Below: a set of entries, each annotated with reported EC50.
- System: HCT-116
- test-method-notes: Decrease in histone H3 phosphorylation in human HCT116 cells after 16 hrs by Western blot
- experimental-conditions: HCT-116, 16 h
Use µM as the unit, but write only the number.

Check out these entries, answers already filled in.
molecule-smiles: O=C(Nc1cc(CN2CCCC2)cc(C(F)(F)F)c1)Nc1ncc(CCNc2ncnc3ccsc23)s1
unit-abbreviation: µM
EC50: 0.016
//
molecule-smiles: O=C(Nc1cccc(CCN2CCC2)c1)Nc1ncc(CCNc2ncnc3ccsc23)s1
unit-abbreviation: µM
EC50: 0.063

Request: Test system HCT-116; read-out EC50; what value for `O=C(Nc1ccc(Cl)c(Cl)c1)Nc1ncc(CCNc2ncnc3ccsc23)s1` ?
Result: 0.016
